- MEASURED TARGET: UniProt:P19327
- Sequence (P19327 whole entry): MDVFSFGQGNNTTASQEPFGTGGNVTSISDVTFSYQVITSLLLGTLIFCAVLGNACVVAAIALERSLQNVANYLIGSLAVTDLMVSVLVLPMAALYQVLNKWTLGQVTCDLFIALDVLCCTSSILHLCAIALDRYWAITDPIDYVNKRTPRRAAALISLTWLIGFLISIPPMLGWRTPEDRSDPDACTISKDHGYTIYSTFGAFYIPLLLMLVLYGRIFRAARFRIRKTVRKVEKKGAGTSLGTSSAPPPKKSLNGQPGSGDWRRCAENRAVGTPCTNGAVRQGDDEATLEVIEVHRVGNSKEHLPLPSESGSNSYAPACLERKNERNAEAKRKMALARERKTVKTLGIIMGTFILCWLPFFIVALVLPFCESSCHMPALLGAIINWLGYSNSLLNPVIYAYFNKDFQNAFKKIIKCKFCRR
PROPERTY LABEL: IC50 (nM)
Provide only the numeric value, understood in nM.

Query string: Could you tell me which IC50 is on file for CN(CCNC(=O)Cc1c(F)cccc1F)C1CCc2cccnc2C1 (stereo not shown) [Example 35] ?
Result string: 131

Query string: Could you tell me which IC50 is on file for CCCN(CCC)C1CCc2cccnc2C1 (stereo not shown) [Example 12] ?
Result string: 138

Query string: Could you tell me which IC50 is on file for CCCN(CC1COc2ccccc2O1)C1CCc2cccnc2C1 (stereo not shown) [Example 15] ?
Result string: 42

Query string: Could you tell me which IC50 is on file for c1cnc2c(c1)CCC(N1CCC1)C2 (stereo not shown) [Example 50, 7-Azetidino-5,6,7,8-tetrahydroquinoline] ?
Result string: 136
